Hello, the source for this data is PubChem BioAssay (EPA / NIEHS), in case you need it.

assay: ATG_MRE_CIS: Attagene CIS-FACTORIAL HepG2 Assay for human Metal Responsive Element (MRE) (AID 2282954); conditions: HepG2 MRE cis-reporter transcription, Attagene multiplex; actives raise or lower the signal
The source made the active and inactive calls. The calls were made as follows: active = hit-call score of the fitted dose curve at least 0.9, where 1 is the maximum; inactive = score below 0.9.
Possible outcomes: active, inactive

{"molecule": "CC(=O)c1ccc(O)cc1", "label.value": "inactive"}
{"molecule": "N=C1N=C(N)c2ccccc21", "label.value": "active"}
{"molecule": "CC1=CCC(C(C)C)=CC1", "label.value": "inactive"}
{"molecule": "NC(N)=S", "label.value": "inactive"}
{"molecule": "CCC=C(C)C=O", "label.value": "inactive"}
{"molecule": "CCCCCCCC1CCCC1=O (stereo not drawn)", "label.value": "inactive"}
{"molecule": "O=C(OCc1ccccc1)c1ccccc1O", "label.value": "inactive"}
{"molecule": "CC(C)(C)c1cccc(O)c1", "label.value": "inactive"}
{"molecule": "CCCOC(=O)CC", "label.value": "inactive"}
{"molecule": "CC=CC(=O)C1=C(C)C=CCC1(C)C", "label.value": "inactive"}
{"molecule": "CCCCCCCC(=O)N(C)C", "label.value": "inactive"}
{"molecule": "CCCCCC1CCC(=O)O1 (stereo not drawn)", "label.value": "inactive"}
{"molecule": "CCCCCCCCOS(=O)(=O)O", "label.value": "inactive"}
{"molecule": "c1ccc(OCCOc2ccccc2)cc1", "label.value": "inactive"}
{"molecule": "CC1=C(C=O)C(C)(C)CCC1", "label.value": "inactive"}
{"molecule": "CCC(C)COC(=O)CC(C)C (stereo not drawn)", "label.value": "inactive"}
{"molecule": "CCn1cc(C(=O)O)c(=O)c2ccc(C)nc21", "label.value": "inactive"}
{"molecule": "CCCCOC(=O)C(C)OC(=O)CCC (stereo not drawn)", "label.value": "inactive"}
{"molecule": "O=S(=O)(O)c1cc(S(=O)(=O)O)c2c(N=Nc3ccccc3)c(O)ccc2c1", "label.value": "inactive"}
{"molecule": "CCCc1ccc(O)cc1", "label.value": "inactive"}
{"molecule": "COc1ccccc1O", "label.value": "inactive"}
{"molecule": "CCC(C)C1CCCCC1=O (stereo not drawn)", "label.value": "inactive"}
{"molecule": "CCCCCCCCCCCCOCCOS(=O)(=O)O", "label.value": "inactive"}
{"molecule": "CCCC1CCC(=O)CC1", "label.value": "inactive"}
{"molecule": "CCOC(=O)C(=O)OCC", "label.value": "inactive"}
{"molecule": "Nc1ccn([C@H]2CC[C@@H](CO)O2)c(=O)n1", "label.value": "inactive"}
{"molecule": "CC1(C)CC(=O)CC(C)(C)N1", "label.value": "inactive"}
{"molecule": "C=C1CC/C=C(\\C)CC[C@@H]2[C@@H]1CC2(C)C", "label.value": "inactive"}
{"molecule": "CCCCCc1cccc(=O)o1", "label.value": "inactive"}
{"molecule": "CC(C)N(c1ccccc1)C(C)C", "label.value": "inactive"}
{"molecule": "CC(C)C(=O)c1ccccc1", "label.value": "inactive"}
{"molecule": "CCCCCCCCOC(C)=O", "label.value": "inactive"}
{"molecule": "CC(=O)C1=C(C)[C@@H]2C[C@@]3(C1)[C@H](C)CC[C@H]3C2(C)C", "label.value": "active"}
